System: CCRIS mutagenicity, Ames/micronucleus/aberration tests
method: CCRIS mutagenicity studies
assayContext: Test System: UDS RAT HEPATOCYTES; Strain/Indicator: BROMODEOXYURIDINE INCORP; Metabolic Activation: NONE; Method: FLOW CYTOMETRIC ANALYSIS
Activity calls are given as the source filed them. The rule behind the calls is not given here.
Give your call using only these classes: active, inactive

[
  {
    "lineNotation": "ClC(Cl)(Cl)Cl",
    "target": "CCRIS mutagenicity, Ames/micronucleus/aberration tests",
    "classLabel": "inactive"
  },
  {
    "lineNotation": "CC(=O)Nc1ccc2c(c1)Cc1ccccc1-2",
    "target": "CCRIS mutagenicity, Ames/micronucleus/aberration tests",
    "classLabel": "active"
  },
  {
    "lineNotation": "CC1=CC(=O)CC(C)(C)C1",
    "target": "CCRIS mutagenicity, Ames/micronucleus/aberration tests",
    "classLabel": "active"
  }
]

Field: next molecule
Fill in: this test's call for Cc1c2ccccc2c(C)c2c1ccc1ccccc12 is ___
active

###

System: CCRIS mutagenicity, Ames/micronucleus/aberration tests
method: CCRIS mutagenicity studies
assayContext: Test System: AMES SALMONELLA TYPHIMURIUM; Strain/Indicator: TA98; Metabolic Activation: RAT, LIVER, S-9, AROCLOR 1254; Method: STANDARD PLATE
The source made the active and inactive calls. How the calls were made is not given here.
Give your call using only these classes: true (1) for active, false (0) for inactive

// below: answered compounds
[
  {
    "compound": "Cc1cc(Cl)ccc1OCCCC(=O)O",
    "classLabel": "false (0)"
  },
  {
    "compound": "Cc1ccc2c(c1[N+](=O)[O-])C(=O)c1ccccc1C2=O",
    "classLabel": "true (1)"
  },
  {
    "compound": "c1cc2c3c(c4c(ccc5ccccc54)cc3c1)[C@H]1O[C@@H]21",
    "classLabel": "true (1)"
  },
  {
    "compound": "C[C@]12CC[C@H](OC(=O)/C=C/c3cccc(N(CCCl)CCCl)c3)CC1=CC[C@@H]1[C@@H]2CC[C@]2(C)NC(=O)CC[C@@H]12",
    "classLabel": "false (0)"
  }
]

Fill in: this test's call for CCCCCCCC/C=C\CCCCCCCCN (tested in a mixture with another compound) is ___
true (1)

Fill in: this test's call for O=C(Nc1ccc2c(O)c(N=Nc3ccc(N=Nc4ccc(S(=O)(=O)O)cc4)cc3)c(S(=O)(=O)O)cc2c1)c1ccccc1 is ___
false (0)

###

Tested on: CCRIS mutagenicity, Ames/micronucleus/aberration tests
method: CCRIS mutagenicity studies
assayContext: Test System: Ames Salmonella typhimurium; Strain/Indicator: TA98; Metabolic Activation: None; Method: Preincubation
Activity calls are given as the source filed them. How the calls were made is not given here.
valueKind: mutagenic call

[
  {
    "compound": "OCc1c[nH]c2ccccc12",
    "mutagenic call": "inactive; negative"
  },
  {
    "compound": "Nc1c(N=Nc2ccc(S(=O)(=O)CCOS(=O)(=O)O)cc2)c(S(=O)(=O)O)cc2cc(S(=O)(=O)O)c(N=Nc3ccc(S(=O)(=O)CCOS(=O)(=O)O)cc3)c(O)c12",
    "mutagenic call": "inactive; negative"
  },
  {
    "compound": "Cc1cnc[nH]1",
    "mutagenic call": "inactive; negative"
  },
  {
    "compound": "COP(N)(=O)SC (stereo unspecified)",
    "mutagenic call": "active; positive"
  },
  {
    "compound": "CC(=O)CC(=O)Nc1ccccc1",
    "mutagenic call": "inactive; negative"
  }
]

So what mutagenic call did Oc1cc(Cl)ccc1Oc1ccc(Cl)cc1Cl get with CCRIS mutagenicity, Ames/micronucleus/aberration tests?
inactive; negative

So what mutagenic call did O.O=C([O-])c1ccccn1.O=C([O-])c1ccccn1.O=C([O-])c1ccccn1.[Cr+3] get with CCRIS mutagenicity, Ames/micronucleus/aberration tests?
inactive; negative

So what mutagenic call did Oc1ccc(Cc2ccc(O)cc2)cc1 get with CCRIS mutagenicity, Ames/micronucleus/aberration tests?
inactive; negative

So what mutagenic call did O=[N+]([O-])c1ccc(Cl)c([N+](=O)[O-])c1 get with CCRIS mutagenicity, Ames/micronucleus/aberration tests?
active; positive

So what mutagenic call did CC1=NN(c2ccccc2)C(=O)C1 get with CCRIS mutagenicity, Ames/micronucleus/aberration tests?
inactive; negative
